All figures here come from patent US20150072315A1.

- Assay method text: staining test for dentine-sealing effect (rhodamine, colorimetry)
- Cond: colour difference coated vs uncoated side after staining with 1% rhodamine solution, CIE L*a*b*
Property: Functional test (delta E); scope: individual molecules
Form: value (number only, do not type unit).

- Molecule: "CC(O)C(=O)O (stereo not shown)"
  Functional test (delta E): 49.83
- Molecule: "O=C1O[C@H]([C@@H](O)CO)C(O)=C1O"
  Functional test (delta E): 56.64
- Molecule: "O=C(O)CC(O)C(=O)O (stereo not shown)"
  Functional test (delta E): 42.41

We next turn to a different molecule, shown below.
Functional test (delta E) measured on N[C@@H](CC(=O)O)C(=O)O = 45.96
